Target: T1, IL-18 receptor (IL-18R) on HEK-Blue IL18R reporter cells (UniProt Q13478 19-541; O95256 20-599, limits assumed)
T1 sequence (looked up) 1: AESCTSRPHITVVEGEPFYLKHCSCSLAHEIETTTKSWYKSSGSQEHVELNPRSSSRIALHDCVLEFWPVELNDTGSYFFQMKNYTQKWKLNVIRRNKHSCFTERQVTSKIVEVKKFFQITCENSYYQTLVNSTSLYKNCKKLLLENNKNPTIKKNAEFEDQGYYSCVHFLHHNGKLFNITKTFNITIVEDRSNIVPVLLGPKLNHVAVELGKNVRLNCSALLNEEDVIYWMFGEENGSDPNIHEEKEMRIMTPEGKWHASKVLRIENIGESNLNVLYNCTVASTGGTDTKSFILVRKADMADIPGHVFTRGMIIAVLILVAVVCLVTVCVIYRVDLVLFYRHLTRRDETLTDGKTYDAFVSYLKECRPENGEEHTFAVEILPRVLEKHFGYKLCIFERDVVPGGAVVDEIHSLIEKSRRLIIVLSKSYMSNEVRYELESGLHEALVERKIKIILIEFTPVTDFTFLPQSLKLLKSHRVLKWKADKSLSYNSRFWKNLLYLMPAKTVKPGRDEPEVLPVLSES
T1 sequence (looked up) 2: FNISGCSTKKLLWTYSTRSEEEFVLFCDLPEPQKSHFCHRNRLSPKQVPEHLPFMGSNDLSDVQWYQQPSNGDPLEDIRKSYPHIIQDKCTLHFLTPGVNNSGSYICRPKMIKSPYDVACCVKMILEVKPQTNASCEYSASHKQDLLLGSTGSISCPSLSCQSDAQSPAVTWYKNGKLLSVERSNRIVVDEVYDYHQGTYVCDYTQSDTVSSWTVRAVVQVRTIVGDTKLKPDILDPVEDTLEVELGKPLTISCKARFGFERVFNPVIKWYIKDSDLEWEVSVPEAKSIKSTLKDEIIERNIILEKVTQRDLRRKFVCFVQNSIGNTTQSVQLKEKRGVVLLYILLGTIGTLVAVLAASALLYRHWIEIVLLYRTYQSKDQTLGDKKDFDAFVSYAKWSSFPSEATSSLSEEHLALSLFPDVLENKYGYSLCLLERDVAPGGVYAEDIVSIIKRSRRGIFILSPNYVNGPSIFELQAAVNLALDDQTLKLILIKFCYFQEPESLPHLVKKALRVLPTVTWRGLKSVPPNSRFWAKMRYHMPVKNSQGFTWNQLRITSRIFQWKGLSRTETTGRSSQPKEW
Assay: cell-based or functional assay

Binder	EC50, HEK-Blue IL18R reporter (nM)
IL-18 variant SEQ ID NO: 204 (V11I, C38A, K53A, C76A, C127A) (ligand) YFGKLESKLSIIRNLNDQVLFIDQGNRPLFEDMTDSDARDNAPRTIFIISMYADSQPRGMAVTISVKCEKISTLSAENKIISFKEMNPPDNIKDTKSDIIFFQRSVPGHDNKMQFESSSYEGYFLAAEKERDLFKLILKKEDELGDRSIMFTVQNED	0.98
IL-18 variant SEQ ID NO: 225 (V11I, C38A, S55H, C76A, C127A) (ligand) YFGKLESKLSIIRNLNDQVLFIDQGNRPLFEDMTDSDARDNAPRTIFIISMYKDHQPRGMAVTISVKCEKISTLSAENKIISFKEMNPPDNIKDTKSDIIFFQRSVPGHDNKMQFESSSYEGYFLAAEKERDLFKLILKKEDELGDRSIMFTVQNED	3.14

Where do the numbers come from? From patent US20250186594A1.
